B1: FAM50A (parent)
chain: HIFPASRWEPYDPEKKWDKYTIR

- Variants of: B1
- Test Method Notes: protein stability index of a GFP-peptide fusion (GPS, HEK-293T) (PSI 1-6); higher = more stable;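 also: lentivirally expressed fusions sorted by FACS into six bins by GFP to DsRed ratio, PSI derived from sequencing read proportions per bin multiplied by bin number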
- Condition Details: c terminus: native

- Mutant Name: "K19Q"
  protein stability index: 2.63
- Mutant Name: "D12G"
  protein stability index: 2.16
- Mutant Name: "Y20S"
  protein stability index: 2.74
- Mutant Name: "K15Y"
  protein stability index: 2.12
- Mutant Name: "P13E"
  protein stability index: 1.86
- Mutant Name: "E14R"
  protein stability index: 2.49
- Mutant Name: "A5H"
  protein stability index: 1.8
- Mutant Name: "K15P"
  protein stability index: 1.99
- Mutant Name: "I2M"
  protein stability index: 2.35
- Mutant Name: "P13L"
  protein stability index: 1.58
- Mutant Name: "A5V"
  protein stability index: 1.77
- Mutant Name: "H1E"
  protein stability index: 2.52
- Mutant Name: "R7M"
  protein stability index: 2.6
- Mutant Name: "I2K"
  protein stability index: 2.48
- Mutant Name: "W8I"
  protein stability index: 3.38
- Mutant Name: "T21C"
  protein stability index: 1.97
- Mutant Name: "W8C"
  protein stability index: 3.11
- Mutant Name: "W8R"
  protein stability index: 3.54
- Mutant Name: "P10W"
  protein stability index: 1.58
- Mutant Name: "F3P"
  protein stability index: 2.62
- Mutant Name: "D18H"
  protein stability index: 2.58
- Mutant Name: "K15H"
  protein stability index: 1.45
